# SYSTEM: Vitamin D3 receptor (Homo sapiens)
# ASSAY_REMARKS: Antagonist activity against 1-alpha,25-dihydroxy vitamin D3-induced HL60 cell differentiation by NBT reduction method relative to TEI-9647
# Assay type: functional, cell-based
# Set-up: scale not given: the % may be the effect or the level left
# CONDITION_CONTEXT: HL-60
EXPERIMENTAL_READOUT: Activity (%)

Known results for compounds:
| MOLECULE | SYSTEM | Activity, % |
| --- | --- | --- |
| C=C1/C(=C\C=C2/CCC[C@]3(C)[C@@H]([C@H](C)C[C@@H]4OC(=O)C(=C)[C@@H]4CC(C)C)CC[C@@H]23)C[C@@H](O)[C@H](OCCCO)[C@@H]1O | Vitamin D3 receptor (Homo sapiens) | 3440 |
| C=C1/C(=C\C=C2/CCC[C@]3(C)[C@@H]([C@H](C)C[C@@H]4OC(=O)C(=C)C45CC5)CC[C@@H]23)C[C@@H](O)C[C@@H]1O | Vitamin D3 receptor (Homo sapiens) | 284 |
| C=C1/C(=C\C=C2/CCC[C@]3(C)[C@@H]([C@H](C)C[C@@H]4OC(=O)C(=C)[C@H]4CCCC)CC[C@@H]23)C[C@@H](O)[C@H](C)[C@@H]1O | Vitamin D3 receptor (Homo sapiens) | 216 |
| C=C1C(=O)O[C@@H](C[C@@H](C)[C@H]2CC[C@H]3/C(=C/C=C4/C[C@@H](O)[C@H](CCCO)[C@H](O)C4=C)CCC[C@]23C)[C@@H]1C | Vitamin D3 receptor (Homo sapiens) | 1510 |

1. C=C1/C(=C\C=C2/CCC[C@]3(C)[C@@H]([C@H](C)C[C@H]4OC(=O)C(=C)[C@H]4CC)CC[C@@H]23)C[C@@H](O)[C@H](CCCO)[C@@H]1O
2. C=C1/C(=C\C=C2/CCC[C@]3(C)[C@@H]([C@H](C)C[C@@H]4OC(=O)C(=C)[C@H]4CC(C)C)CC[C@@H]23)C[C@@H](O)[C@H](OCCCO)[C@@H]1O
Q: Activity comparison. Which is larger, 1 or 2 ? Which one? Tell me its label.
Result: 2
(2: 291%, 1: 18%)
